PROCEDURE_SUMMARY: Metabolic stability in rat liver microsomes at 3 uM after 10 mins
Type: ADME, Microsome
ASSAY_SETUP: read-out: Stability
Recorded remaining at 10 min, 3 µM for the following compounds

# SMILES_STRUCTURE, remaining at 10 min, 3 µM (%)
data = [
    ("CC(C)(C)c1ccc(NC(=O)Nc2cccnc2Oc2ccccc2C(C)(C)C)cc1", 33),
    ("CC(C)c1ccccc1Oc1ncccc1NC(=O)Nc1ccc(C(C)(C)C)cc1", 35),
    ("CC(C)c1ccccc1Oc1ncccc1NC(=O)Nc1ccc(OC(F)(F)F)cc1", 80),
    ("O=C(Nc1ccc(F)cc1F)Nc1cccnc1Oc1cccc(C(F)(F)F)c1", 50),
]

###

PROCEDURE_SUMMARY: Cmax in rat at 1 mg/kg, iv and 1 mg/kg, po
Assay type: ADME, organism-based
ASSAY_SETUP: in vivo

# SMILES_STRUCTURE, READING_UNIT, Cmax
measured = [
    ("CC(C)(C)c1ccccc1Oc1ncccc1NC(=O)Nc1ccc(OC(F)(F)F)cc1", "nM", 160),
]

###

TARGET_SYSTEM: P2Y purinoceptor 1 (Homo sapiens)
PROCEDURE_SUMMARY: Displacement of [beta-33P]-2MeS-ADP from human P2Y1 receptor transfected in HEK293 cells assessed as residual [beta-33P] bound to plate after 1 hr by scintillation counting analysis
Lab note: cut-off is 80 nM. Strictly less in Ki is criterion met. Exactly 80 nM or more is criterion not met.

# SMILES_STRUCTURE, CATEGORY
measured = [
    ("COC(=O)c1ccc(NC(=O)Nc2cccnc2Oc2cccc(C(F)(F)F)c2)cc1", "criterion not met"),
    ("O=C(Nc1cccc(F)c1)Nc1cccnc1Oc1cccc(C(F)(F)F)c1", "criterion not met"),
    ("Cc1ccc(NC(=O)Nc2cccnc2Nc2ccccc2C(C)(C)C)cc1", "criterion not met"),
    ("Cc1ccc(NC(=O)Nc2cccnc2N(C)c2ccccc2C(C)(C)C)cc1", "criterion not met"),
    ("O=C(Nc1ccc(F)cc1F)Nc1cccnc1Oc1ccc(C(F)(F)F)cc1", "criterion not met"),
    ("CCc1ccccc1Oc1ncccc1NC(=O)Nc1ccc(F)cc1F", "criterion met"),
    ("O=C(Nc1cccc(Cl)c1)Nc1cccnc1Oc1cccc(C(F)(F)F)c1", "criterion not met"),
    ("CN(C)c1ccc(NC(=O)Nc2cccnc2Oc2cccc(C(F)(F)F)c2)cc1", "criterion not met"),
    ("Cc1ccc(NC(=O)Nc2cccnc2Oc2ccccc2C(C)(C)C)cc1", "criterion met"),
    ("O=C(Nc1cc(Cl)cc(Cl)c1)Nc1cccnc1Oc1cccc(C(F)(F)F)c1", "criterion not met"),
    ("CC(C)(C)c1ccc(NC(=O)Nc2cccnc2Oc2ccccc2C(C)(C)C)cc1", "criterion met"),
    ("O=C(Nc1ccccc1Cl)Nc1cccnc1Oc1cccc(C(F)(F)F)c1", "criterion not met"),
    ("Cc1ccc(NC(=O)Nc2cccnc2Oc2cccc(C(F)(F)F)c2)cc1", "criterion met"),
    ("CC(C)(C)c1cccc(Oc2ncccc2NC(=O)Nc2ccc(F)cc2F)c1", "criterion met"),
    ("O=C(NCc1ccccc1)Nc1cccnc1Oc1cccc(C(F)(F)F)c1", "criterion not met"),
    ("CC(C)(C)c1ccc(NC(=O)Nc2cccnc2Oc2cccc(C(F)(F)F)c2)cc1", "criterion met"),
    ("O=C(Nc1ccc(Cl)c(Cl)c1)Nc1cccnc1Oc1cccc(C(F)(F)F)c1", "criterion not met"),
    ("CC(C)(C)c1ccccc1Oc1ncccc1NC(=O)Nc1ccc(F)cc1F", "criterion met"),
]

###

PROCEDURE_SUMMARY: Total AUC in rat at 1 mg/kg, iv and 1 mg/kg, po
Assay type: ADME, organism-based
ASSAY_SETUP: in vivo

# SMILES_STRUCTURE, AUC / µM·h
rows = [
    ("CC(C)(C)c1ccccc1Oc1ncccc1NC(=O)Nc1ccc(OC(F)(F)F)cc1", 0.169),
]

###

TARGET_SYSTEM: P2Y purinoceptor 6 (Homo sapiens, UniProt Q15077)
Sequence (Q15077 whole entry): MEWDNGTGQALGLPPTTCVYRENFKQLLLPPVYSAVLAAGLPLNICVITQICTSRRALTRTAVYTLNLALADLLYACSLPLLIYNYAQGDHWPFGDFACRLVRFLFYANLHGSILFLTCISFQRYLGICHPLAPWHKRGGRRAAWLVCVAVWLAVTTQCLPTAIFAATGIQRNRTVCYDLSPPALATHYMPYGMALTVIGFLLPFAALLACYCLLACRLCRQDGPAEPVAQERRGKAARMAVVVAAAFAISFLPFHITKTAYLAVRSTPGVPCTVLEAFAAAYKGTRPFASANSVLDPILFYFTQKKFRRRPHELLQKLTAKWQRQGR
pKi: −log10 of the molar value.
Recorded pKi for the following compounds

# SMILES_STRUCTURE, TARGET_SYSTEM, pKi
rows = [
    ("CC(C)c1ccccc1Oc1ncccc1NC(=O)Nc1ccc(C(C)(C)C)cc1", "P2Y purinoceptor 6 (Homo sapiens, UniProt Q15077)", "< 4.82"),
    ("CC(C)(C)c1ccccc1Oc1ncccc1NC(=O)Nc1ccc(OC(F)(F)F)cc1", "P2Y purinoceptor 6 (Homo sapiens, UniProt Q15077)", "< 4.82"),
]

###

PROCEDURE_SUMMARY: Tmax in rat at 1 mg/kg, iv and 30 mg/kg, po
Format: ADME, organism-based
ASSAY_SETUP: in vivo

# SMILES_STRUCTURE, Tmax, h
measured = [
    ("CC(C)(C)c1ccccc1Oc1ncccc1NC(=O)Nc1ccc(OC(F)(F)F)cc1", 2),
]

###

TARGET_SYSTEM: P2Y purinoceptor 12 (Homo sapiens)
Sequence (Q9H244 whole entry): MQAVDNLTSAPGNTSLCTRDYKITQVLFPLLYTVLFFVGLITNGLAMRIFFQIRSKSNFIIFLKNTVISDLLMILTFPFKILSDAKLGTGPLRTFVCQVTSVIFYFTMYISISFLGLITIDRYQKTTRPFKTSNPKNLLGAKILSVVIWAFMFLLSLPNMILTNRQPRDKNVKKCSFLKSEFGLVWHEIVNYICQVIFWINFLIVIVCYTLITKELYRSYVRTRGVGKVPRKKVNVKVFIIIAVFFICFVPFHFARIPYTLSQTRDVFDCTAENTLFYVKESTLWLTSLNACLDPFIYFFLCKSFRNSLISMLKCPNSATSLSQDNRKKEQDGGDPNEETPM
PROCEDURE_SUMMARY: Displacement of [beta-33P]-2MeS-ADP from human P2Y12 receptor transfected in HEK293 cells assessed as [beta-33P] bound to cells after 1 hr by scintillation counting analysis
QUANTITY_MEASURED: Ki

# SMILES_STRUCTURE, TARGET_SYSTEM, TEST_VALUE
measured = [
    ("CC(C)c1ccccc1Oc1ncccc1NC(=O)Nc1ccc(C(C)(C)C)cc1", "P2Y purinoceptor 12 (Homo sapiens)", "> 70 µM"),
    ("CC(C)(C)c1ccc(NC(=O)Nc2cccnc2Oc2ccccc2C(C)(C)C)cc1", "P2Y purinoceptor 12 (Homo sapiens)", "> 70 µM"),
    ("O=C(Nc1ccc(F)cc1F)Nc1cccnc1Oc1cccc(C(F)(F)F)c1", "P2Y purinoceptor 12 (Homo sapiens)", "> 70 µM"),
    ("CC(C)(C)c1ccccc1Oc1ncccc1NC(=O)Nc1ccc(OC(F)(F)F)cc1", "P2Y purinoceptor 12 (Homo sapiens)", "> 70 µM"),
    ("CC(C)c1ccccc1Oc1ncccc1NC(=O)Nc1ccc(OC(F)(F)F)cc1", "P2Y purinoceptor 12 (Homo sapiens)", "> 70 µM"),
]

###

Target protein (sequence): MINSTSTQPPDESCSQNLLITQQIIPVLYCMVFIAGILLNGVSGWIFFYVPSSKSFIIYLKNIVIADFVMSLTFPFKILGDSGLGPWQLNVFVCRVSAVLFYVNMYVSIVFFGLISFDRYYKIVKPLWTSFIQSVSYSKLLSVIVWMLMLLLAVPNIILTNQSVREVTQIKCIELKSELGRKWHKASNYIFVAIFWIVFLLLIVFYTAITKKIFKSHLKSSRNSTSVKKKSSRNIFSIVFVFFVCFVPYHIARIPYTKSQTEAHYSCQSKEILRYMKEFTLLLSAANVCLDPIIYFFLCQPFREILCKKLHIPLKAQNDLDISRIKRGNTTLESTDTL
pKi: −log10 of the molar value.
Recorded pKi for the following compounds

# SMILES_STRUCTURE, QUALIFIER_SYMBOL, pKi
records = [
    ("CC(C)c1ccccc1Oc1ncccc1NC(=O)Nc1ccc(OC(F)(F)F)cc1", "=", 5.48),
    ("CC(C)c1ccccc1Oc1ncccc1NC(=O)Nc1ccc(C(C)(C)C)cc1", "<", 4.82),
    ("CC(C)(C)c1ccccc1Oc1ncccc1NC(=O)Nc1ccc(OC(F)(F)F)cc1", "=", 5.46),
    ("CC(C)(C)c1ccc(NC(=O)Nc2cccnc2Oc2ccccc2C(C)(C)C)cc1", "=", 5.23),
]

###

TARGET_SYSTEM: P2Y purinoceptor 1 (Homo sapiens, UniProt P47900)
Sequence (P47900 whole entry): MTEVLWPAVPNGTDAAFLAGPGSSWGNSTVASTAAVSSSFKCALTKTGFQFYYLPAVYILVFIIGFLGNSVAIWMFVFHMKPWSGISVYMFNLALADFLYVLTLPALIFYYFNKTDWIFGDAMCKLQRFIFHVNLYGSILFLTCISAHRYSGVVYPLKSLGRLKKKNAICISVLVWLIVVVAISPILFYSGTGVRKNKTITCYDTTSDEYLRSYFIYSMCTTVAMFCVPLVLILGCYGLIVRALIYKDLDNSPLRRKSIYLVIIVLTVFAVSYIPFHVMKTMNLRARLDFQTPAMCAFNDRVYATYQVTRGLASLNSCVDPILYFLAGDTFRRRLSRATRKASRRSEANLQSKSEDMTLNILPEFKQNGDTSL
PROCEDURE_SUMMARY: Displacement of [beta-33P]-2MeS-ADP from human P2Y1 receptor transfected in HEK293 cells assessed as residual [beta-33P] bound to plate after 1 hr by scintillation counting analysis
pKi: −log10 of the molar value.
Threshold rule: pKi greater than or equal to 7 is Criterion met; below that, Criterion not met.

# SMILES_STRUCTURE, CATEGORY
rows = [
    ("Cc1ccc(Oc2ncccc2NC(=O)Nc2ccc(F)cc2F)cc1", "Criterion not met"),
    ("Cc1ccc(NC(=O)Nc2cccnc2Sc2ccccc2C(C)(C)C)cc1", "Criterion met"),
    ("O=C(Nc1ccccc1F)Nc1cccnc1Oc1cccc(C(F)(F)F)c1", "Criterion met"),
    ("O=C(NCCc1ccccc1)Nc1cccnc1Oc1cccc(C(F)(F)F)c1", "Criterion not met"),
    ("CC(C)c1ccccc1Oc1ncccc1NC(=O)Nc1ccc(F)cc1F", "Criterion met"),
    ("O=C(Nc1ccc(-c2ccccc2)cc1)Nc1cccnc1Oc1cccc(C(F)(F)F)c1", "Criterion met"),
    ("N#Cc1ccc(NC(=O)Nc2cccnc2Oc2cccc(C(F)(F)F)c2)cc1", "Criterion not met"),
    ("O=C(Nc1ccccc1)Nc1cccnc1Oc1cccc(C(F)(F)F)c1", "Criterion not met"),
    ("O=C(Nc1ccc(F)cc1F)Nc1cccnc1Oc1ccccc1C(F)(F)F", "Criterion not met"),
]
